target: T1, human TNFα (human, UniProt P01375 77-233); assay: TNF receptor assay: inhibition of TNF binding to TNFR1-Fc (ELISA)
T1 construct: Coated on plates, coupled to a CM5 chip, or added in solution (10 ng/ml) in the TNF receptor assay; the assay paragraphs often print only 'TNF'; also called TNF alpha; TAR1
T1 sequence (P01375 77-233 limits assumed): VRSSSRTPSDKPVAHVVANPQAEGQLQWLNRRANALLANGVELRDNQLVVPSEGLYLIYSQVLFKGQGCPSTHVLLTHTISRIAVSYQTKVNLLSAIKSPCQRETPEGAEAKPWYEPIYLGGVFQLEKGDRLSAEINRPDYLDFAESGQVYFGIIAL

Binder	IC50
TAR1-5-19 monomer (other, also called TAR1-5-19 dAb) VL: DIQMTQSPSSLSASVGDRVTITCRASQSIDSYLHWYQQKPGKAPKLLIYSASELQSGVPSRFSGSGSGTDFTLTISSLQPEDFATYYCQQVVWRPFTFGQGTKVEIKR	30 nM
TAR1-5-19, MSA16 cys bonded heterodimer (bispecific antibody, V domains shown, C-terminal Cys disulphide bonded to the C-terminal Cys of the MSA16 chain ; Chain 1 pos 109 Cys and chain 2 pos 109 Cys are joined by an intermolecular disulphide bond, made by chemical coupling via dithiodipyridine activation., Made by chemical coupling via a disulphide bond; separated from monomers by cation exchange; also called disulphide bonded heterodimer of TAR1-5-19 dAb and MSA16 dAb; cys bonded TAR1-5-19, MSA16 dimer) V domain 1: DIQMTQSPSSLSASVGDRVTITCRASQSIDSYLHWYQQKPGKAPKLLIYSASELQSGVPSRFSGSGSGTDFTLTISSLQPEDFATYYCQQVVWRPFTFGQGTKVEIKR V domain 2: DIQMTQSPSSLSASVGDRVTITCRASQSIIKHLKWYQQKPGKAPKLLIYGASRLQSGVPSRFSGSGSGTDFTLTISSLQPEDFATYYCQQGARWPQTFGQGTKVEIKR	~18 nM
TAR1-27d16 (other, dAb-linker-dAb dimer; also called TAR1-27 dimer d16) DIQMTQSPSSLSASVGDRVTITCRASQSIWTKLHWYQQKPGKAPKLLIYMASSLQSGVPSRFSGSGSGTDFTLTISSLQPEDFATYYCQQWFSNPSTFGQGTKVEIKRGGGGSGGGGSGGGGSDIQMTQSPSSLSASVGDRVTITCRASQSIGPNLEWYQQKPGKAPKLLIYAASSLQSGVPSRFSGSGSGTDFTLTISSLQPEDFATYYCQQQMGRPRTFGQGTKVEIKR	~50 nM
TAR1-5-19CYS dimer (other, C-terminal Cys forms the disulphide between the two chains, Dimer via the engineered C-terminal cysteine, purified by protein L and cation exchange; also called TAR1-5-19CYS disulphide dimer) VL: DIQMTQSPSSLSASVGDRVTITCRASQSIDSYLHWYQQKPGKAPKLLIYSASELQSGVPSRFSGSGSGTDFTLTISSLQPEDFATYYCQQVVWRPFTFGQGTKVEIKRC	0.3 to 0.8 nM
